System: SK-OV-3 ovarian
Assay: NCI tumour cell line growth inhibition, 48 h
Recorded TGI values for a group of compounds are listed next.

> print(dat)
                                   compound  experimental.endpoint  value.reported
1  CC/C(Cc1ccccc1)=C(\c1ccc(OCCN2CCCCCC2)cc1)c1ccc(OC(=O)NCc2ccccc2)cc1                    TGI         15.2 µM
2                CCOc1ccccc1NC(=O)CCC(=O)OC                    TGI        > 100 µM
3        Cc1nc2sccn2c1/C=C1/C(=O)Nc2ccccc21                    TGI       > 93.3 µM
4  O=C1NC(N/N=C\C(O)C(O)C(O)CO)=N/C1=C/c1ccccc1 (centres undefined)                    TGI        > 100 µM
5  COc1cccc([C@H]2CC(=O)c3cc4c(cc3N2)OCO4)c1                    TGI        > 100 µM

The reported value for COc1cc(/C=C2/SC(c3ccccc3)N(c3ccc(NC(C)=O)cc3)C2=O)cc(OC)c1OC (centres undefined) in terms of TGI is > 100 µM

The reported value for Cc1ccc(NCCCN2CCN(CCCNc3ccc(C)c4sc5ccccc5c(=O)c34)CC2)c2c(=O)c3ccccc3sc12 in terms of TGI is > 100 µM

The reported value for Nc1ccn(C2OC(CO)C(O)C2F)c(=O)n1 (centres undefined) in terms of TGI is > 5000 µM

The reported value for COC(=O)C(=O)C(C(=O)Nc1cccc(C)c1C)C1Sc2ccccc2NC1=O (centres undefined) in terms of TGI is > 25 µM

###

Test system: HCT-15 colon
Experiment: NCI tumour cell line growth inhibition, 48 h
Experimental endpoint: TGI

> print(dat)
                                   compound  value.reported
1  C=C(Cn1c(=O)c2ccccc2c2ccccc21)c1ccc(C(=O)Nc2ccccc2N)cc1        > 100 µM

The reported value for Cc1[nH]ncc1-c1cc2nc(C3CC4CCN3CC4)[nH]c(=O)c2s1 (configuration not stated) in terms of TGI is > 100 µM

The reported value for Cc1ccc(NCCCN2CCN(CCCNc3ccc(C)c4sc5ccccc5c(=O)c34)CC2)c2c(=O)c3ccccc3sc12 in terms of TGI is > 100 µM

The reported value for COc1cc(C(=O)OCCCCCCCCCCC[P+](c2ccccc2)(c2ccccc2)c2ccccc2)ccc1O in terms of TGI is 2.97 µM

The reported value for CC[P+](C)(Cc1ccccc1)c1ccccc1 (configuration not stated) in terms of TGI is > 100 µM

The reported value for COc1ccc(Cn2c(C)nc3c2C(=O)c2ccccc2C3=O)cc1 in terms of TGI is > 75 µM

The reported value for O=C(O)[C@H]1[C@@H](C2CCCCC2)O[C@@H](C2CCCCC2)O[C@H]1C(F)(F)F in terms of TGI is 88.1 µM

The reported value for C/C=C/[C@@]1(OC(=O)c2ccccc2)C[C@@H]2CCCC[C@@H]21 in terms of TGI is 36.9 µM

The reported value for C=CC(=O)Nc1ccc(Nc2nccc(-c3ccc(N4CCCC4)c(C#N)c3)n2)cc1 in terms of TGI is 10.3 µM

The reported value for Nc1nc(CCC(=O)Nc2cccc(C(F)(F)F)c2)cc(-c2cccc3ccccc23)n1 in terms of TGI is > 100 µM

The reported value for CCCCCCCCCCCOC(=S)NC(C)C in terms of TGI is 31.8 µM

The reported value for c1ccc(SC2(Sc3ccccc3)CCCC2)cc1 in terms of TGI is > 100 µM

The reported value for O=C(/C=C/c1ccc(B(O)O)cc1)/C=C/c1ccc(B(O)O)cc1 in terms of TGI is 10.7 µM

The reported value for Clc1ccc(-c2ccc(-c3nnc(CCc4nnc(-c5ccc(-c6ccc(Cl)cc6)o5)o4)o3)o2)cc1 in terms of TGI is > 100 µM

The reported value for COC(=O)c1cn(CCCC(=O)O)nn1 in terms of TGI is > 100 µM

The reported value for O=S(=O)(c1ccc(Br)cc1)n1c2ccc(Br)cc2c2nc3ccccc3nc21 in terms of TGI is > 100 µM

The reported value for CNCc1cccc2c1OCCOCCN(C)C(=O)CN(C)S(=O)(=O)c1ccc(cc1)-c1cnc(N)c(n1)C(=O)N2 in terms of TGI is > 100 µM

The reported value for Nc1nc2c(=O)c3ccccc3sc2s1 in terms of TGI is > 100 µM

The reported value for COc1cc2c(cc1O)C=NCC2 in terms of TGI is > 100 µM

###

Recorded TGI values for a group of compounds are listed next.
Test system: CCRF-CEM leukemia
Test: NCI tumour cell line growth inhibition, 48 h
The answer is to be given in µM; state only the numeric part.

Compound	TGI / µM
CC1=CCC[C@@]2(C)C(CC[C@@H]2C(C)/C=C/C(C)C)c2ccc(cc2C(=O)O)C[C@@H](O)CC1 (stereo not given in full)	20.8
CC1=CC2CC(C)=C(CC[C@]3(C)CC[C@H]([C@@H](C)C(=O)O)OO3)C(C)(C)C2CC1 (stereo not given in full)	0.493
COc1cc(/C=C/C(=O)OCC23CC[C@@]4(C(=O)O)CCC(C)[C@H](C)C4C2=CCC2[C@@]4(C)CC[C@H](O)C(C)(C)C4CC[C@]23C)ccc1O (stereo not given in full)	22.3
C=C1C(=O)O[C@H]2[C@H]1CC/C(CNC(=O)/C=C/c1ccc(Br)cc1)=C\CC[C@@]1(C)O[C@@H]21	4.59
CN(C)CCNc1ccc(C(=O)NCCCN(C)CCCNC(=O)c2ccc(NCCN(C)C)c3c(=O)c4ccccc4[nH]c23)c2[nH]c3ccccc3c(=O)c12	1.02

The reported value for O=C1CSC2(CC(/C=C/c3ccccc3)=NN2c2cccc(S(=O)(=O)O)c2)N1c1nc2ccccc2s1 (stereo not given) in terms of TGI is 49.5

The reported value for COc1cccc(C2CC(c3cc(OC)c(OC)c(OC)c3)=NN2)c1 (stereo not given) in terms of TGI is 21.7

The reported value for Cc1c2cnccc2c(C)c2c1c1cc(C3OCCCO3)ccc1n2C in terms of TGI is 3.81

The reported value for O=S(=O)(Nc1ncccn1)c1ccc(N=Nc2ccc(O)c3ncccc23)cc1 in terms of TGI is 24.8

###

System: 786-0 renal
Test: NCI tumour cell line growth inhibition, 48 h
Recorded TGI values for a group of compounds are listed next.

Compound	TGI
CN(C)c1ccc2c(c1)C(=O)N(OS(=O)(=O)c1ccc([N+](=O)[O-])cc1)C2=O	47.9 µM
CC(C)(C)OC(=O)CN1CCNCCNCC1	> 100 µM
CCC(C)[C@H](NC(=O)[C@H](Cc1ccccc1)NC(=O)N(CC)c1ccccc1)C(=O)N[C@@H](CC(C)C)C(=O)OC (some centres undefined)	> 100 µM

The reported value for CC(=O)N1CCN(C2=Nc3ccccc3CO2)C1=S in terms of TGI is > 100 µM

The reported value for COc1ccc(-c2[nH]ncc2-c2cc3c(c(OC)c2)OCC(=O)N3)cc1 in terms of TGI is > 100 µM

The reported value for COc1cc(/C=C/C(=O)OCC23CC[C@@]4(C(=O)O)CCC(C)[C@H](C)C4C2=CCC2[C@@]4(C)CC[C@H](O)C(C)(C)C4CC[C@]23C)ccc1O (some centres undefined) in terms of TGI is 31.7 µM

###

Test system: MDA-MB-435
Assay: NCI tumour cell line growth inhibition, 48 h
Experimental endpoint: TGI

Check out these entries, answers already filled in.
Molecule	Experimental endpoint	Value reported
COc1cccc2c1C(=O)c1c(O)c3c(c(O)c1C2=O)CC(O)(C(C)=O)CC3OC1CC(N)C(O)C(C)O1 (stereo not drawn)	TGI	0.33 µg/mL
O=S(=O)(Oc1ccc2oc3ccccc3c2c1-c1c(OS(=O)(=O)C(F)(F)F)ccc2oc3ccccc3c12)C(F)(F)F	TGI	> 100 µM
COc1cccc(C2CC(c3cc(OC)c(OC)c(OC)c3)=NN2)c1 (stereo not drawn)	TGI	9.39 µM
CCOC(=O)c1cnc(-n2[nH]c(C)c(CCO)c2=O)[nH]c1=O	TGI	> 100 µM

Proceeding to the next molecule to report its TGI.
The reported value for COCOc1ccc(C(=O)C(C)c2ccc(OCOC)cc2OCOC)c(O)c1 (stereo not drawn) in terms of TGI is > 100 µM

###

Tested on: SK-MEL-28 melanoma
Experiment: NCI tumour cell line growth inhibition, 48 h
Experimental endpoint: TGI

Check out these entries, answers already filled in.
> print(dat)
                                   molecule  experimental.endpoint  value.reported
1  O=C1Oc2ccccc2C(=O)/C1=C/N1C(=O)N/C(=C\c2ccccc2O)C1=O                    TGI        > 100 µM
2      C1CC2=C(C1)[Se]C(=C1Sc3nsnc3S1)[Se]2                    TGI        > 100 µM

The reported value for Cc1[nH]c2ncn(/N=C/c3ccccc3O)c(=N)c2c1Cc1ccccc1 in terms of TGI is > 100 µM

The reported value for O=C(O)c1ccccc1.[Ag] in terms of TGI is 32.4 µM

The reported value for COc1c2cc([N+](=O)[O-])cc1CNC(=O)CN1CCOCCOCCN(CCOCCOCC1)CC(=O)NC2 in terms of TGI is > 100 µM

The reported value for CCOC(=O)c1ccc(N=NN(C)C(=O)C(C)N)cc1 (stereo unspecified) in terms of TGI is > 100 µM

Attribution: PubChem BioAssay (NCI)
